The origin of these recorded values is patent US4461899A.

For each of the compounds below, state its Fruit Yield, Red (% of Control).
Test system: field grown tomato plants
Assay: Overall yield and fruit size of field grown tomatoes
Format: in vivo
Settings: 10 ppm
Excerpt: This example illustrates the effects of compounds of this invention on overall yield of tomatoes. For the test, field grown tomato plants, when in the early flowering stage, were foliage sprayed with the particular compounds of the invention designated below, and with the commercial product CF-125 (Maintain), at rates of 10, 50 and 500 ppm. These rates correspond to applications of 3.69 g, 18.54 g and 185.4 g/hectare, respectively. […]

I'm hoping you can list Fruit Yield, Red (% of Control) for every compound here, please.
1. COC(=O)C1(O)c2ccccc2-c2ccc(Cl)cc21 (stereo not shown)
2. O=C(O)c1cccc2c1Cc1ccccc1-2 [Example 3]

OUTPUT:
24 % of Control
119 % of Control

Batch: Fruit Yield, Red (% of Control) for all items listed.
1. O=C(O)c1cccc2c1Cc1ccccc1-2 [Example 1]
2. COC(=O)C1(N2[C@H](C)CC[C@@H]2C)c2ccccc2-c2ccc(Cl)cc21 (stereo partly shown)

OUTPUT:
1: 152 % of Control; 2: 161 % of Control

* * *

What Fruit Size, Green (% of Control) was measured for each of the following?
system: field grown tomato plants; assay: Overall yield and fruit size of field grown tomatoes; type: in vivo; details: 50 ppm; control 104.0 g

The cases that follow already have their Fruit Size, Green (% of Control) on record.
> print(dat)
                                   molecule         experimentalsystem                 measuredparameter       measurement
1  COC(=O)C1(N2[C@H](C)CC[C@@H]2C)c2ccccc2-c2ccc(Cl)cc21 (stereo partly shown)  field grown tomato plants  Fruit Size, Green (% of Control)   46 % of Control
2    O=C(O)c1cccc2c1Cc1ccccc1-2 [Example 1]  field grown tomato plants  Fruit Size, Green (% of Control)   93 % of Control
3    O=C(O)c1cccc2c1Cc1ccccc1-2 [Example 3]  field grown tomato plants  Fruit Size, Green (% of Control)  101 % of Control

INPUT: Which Fruit Size, Green (% of Control) is listed for COC(=O)C1(O)c2ccccc2-c2ccc(Cl)cc21 (stereo not shown) ?
OUTPUT: 62 % of Control
